Assay: Human HepG2 cell viability assay in 384 well format
Type: toxicity, cell-based
Set-up: dose 125 nL, time 70.5 hour; concentration not given beside the values
Conditions: HepG2 cells, read-out: Inhibition
Form field: cytotoxicity at 70.5 h (one value per entry).

>  <Compound>
CN(Cc1nnn(CC2CC2)n1)C(=O)c1ccccc1

>  <Unit annotation>
%

>  <cytotoxicity at 70.5 h>
32.1

$$$$
>  <Compound>
CCc1nccn1-c1cncc(C2CCCN2CC(=O)N2CCCC2)n1 (configuration not stated)

>  <Unit annotation>
%

>  <cytotoxicity at 70.5 h>
-3.79

$$$$
>  <Compound>
Cc1cc(NC(=O)C(C#N)Cc2cnn(C)c2C)no1 (configuration not stated)

>  <Unit annotation>
%

>  <cytotoxicity at 70.5 h>
-13.8

$$$$
>  <Compound>
Cc1nc(CN2CCCC(NCCCOc3ccc(F)cc3)C2)no1 (configuration not stated)

>  <Unit annotation>
%

>  <cytotoxicity at 70.5 h>
-8.43

$$$$
>  <Compound>
CNC(=O)c1cc2c(nc1NCC(C)C)CCN(c1ccncn1)CC2

>  <Unit annotation>
%

>  <cytotoxicity at 70.5 h>
-0.746

$$$$
>  <Compound>
Cc1ccc(CN(Cc2cccnc2)C2CC(C)(C)NC(C)(C)C2)s1

>  <Unit annotation>
%

>  <cytotoxicity at 70.5 h>
9.23

$$$$
>  <Compound>
CSCc1noc(CN2CCCCC2CCc2ccc(O)cc2)n1 (configuration not stated)

>  <Unit annotation>
%

>  <cytotoxicity at 70.5 h>
-2.26

$$$$
>  <Compound>
CC(=O)c1cnc(NCCCN2CCOCC2)nc1C

>  <Unit annotation>
%

>  <cytotoxicity at 70.5 h>
14.7

$$$$
>  <Compound>
CC(C)CN1C(=O)C2(CCCC2)NC1c1cccnc1 (configuration not stated)

>  <Unit annotation>
%

>  <cytotoxicity at 70.5 h>
17.9

$$$$
>  <Compound>
Cc1csc(N2CCN(CCCN3CCCC3=O)CC2)n1

>  <Unit annotation>
%

>  <cytotoxicity at 70.5 h>
-0.2

$$$$
>  <Compound>
CC(O)CN1CCC(CNCc2ccc(OC(F)(F)F)cc2)CC1 (configuration not stated)

>  <Unit annotation>
%

>  <cytotoxicity at 70.5 h>
5.04

$$$$
>  <Compound>
Cc1nn(CCO)c(C)c1-c1cc(C(C)(C)C)nc(N)c1C#N

>  <Unit annotation>
%

>  <cytotoxicity at 70.5 h>
16.9

$$$$

* * *

Assay: Human HepG2 cell viability assay in 384 well format
Type: toxicity, cell-based
Set-up: dose 125 nL, time 70.5 hour; concentration not given beside the values
Details: HepG2 cells, read-out: Inhibition
Form field: cytotoxicity at 70.5 h (one value per entry).
Measured quantity: cytotoxicity at 70.5 h (%)

>  <Molecule>
N[C@@H]1c2ccccc2C2(CCN(C(=O)c3ccc(CO)o3)CC2)[C@H]1O

>  <Measured quantity>
cytotoxicity at 70.5 h

>  <Measured value>
-5.57

$$$$
>  <Molecule>
CS(=O)(=O)CCC(=O)NC1(c2cccc(Br)c2)CC1

>  <Measured quantity>
cytotoxicity at 70.5 h

>  <Measured value>
-8.28

$$$$
>  <Molecule>
CCC(O)CN(CC(=O)NC(=O)NC1CC1)c1ccccc1 (configuration not stated)

>  <Measured quantity>
cytotoxicity at 70.5 h

>  <Measured value>
-6.3

$$$$
>  <Molecule>
CCOc1ccc(NCC(=O)NCC(=O)N2CCCC2)c(C(F)(F)F)c1

>  <Measured quantity>
cytotoxicity at 70.5 h

>  <Measured value>
-11.7

$$$$
>  <Molecule>
Cc1ccc(N2CCO[C@@H]3CN(Cc4cccc(C)n4)CC[C@@H]3C2)nn1

>  <Measured quantity>
cytotoxicity at 70.5 h

>  <Measured value>
-3.06

$$$$
>  <Molecule>
Cc1cnc(C)c(N2CCN(Cc3ccc(-c4cc[nH]n4)o3)CC2)n1

>  <Measured quantity>
cytotoxicity at 70.5 h

>  <Measured value>
-12.4

$$$$
>  <Molecule>
CCC(CO)N(Cc1ccco1)C(=O)c1ccccc1NC (configuration not stated)

>  <Measured quantity>
cytotoxicity at 70.5 h

>  <Measured value>
0.632

$$$$
>  <Molecule>
CN(C)C1CCN(C(=O)C2SCCc3ccccc32)CC1 (configuration not stated)

>  <Measured quantity>
cytotoxicity at 70.5 h

>  <Measured value>
-6.27

$$$$
>  <Molecule>
CC(C)C(C)(C#N)NC(=O)Cn1cc(Cl)cn1 (configuration not stated)

>  <Measured quantity>
cytotoxicity at 70.5 h

>  <Measured value>
-6.35

$$$$
>  <Molecule>
CNS(=O)(=O)Cc1cccc(CNc2ccc(Cl)cn2)c1

>  <Measured quantity>
cytotoxicity at 70.5 h

>  <Measured value>
4.33

$$$$
>  <Molecule>
Cc1ccc(C2CCCN2S(=O)(=O)N(C)Cc2nccn2C)o1 (configuration not stated)

>  <Measured quantity>
cytotoxicity at 70.5 h

>  <Measured value>
5.77

$$$$
>  <Molecule>
CCCNC(=O)CSCc1ccc(S(=O)(=O)N(C)C)o1

>  <Measured quantity>
cytotoxicity at 70.5 h

>  <Measured value>
-6.98

$$$$
